What cell number was measured for each of the following?
# Test system: TDF;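 also: TDF denotes transformed human dermal fibroblasts of mesenchymal origin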
# Protocol Notes: cell number relative to DMSO (% of DMSO); higher = more cells (less growth inhibition / toxicity)
# Run Parameters: concentration: 10 µM; 24 h
Answer using only a numeral; do not append any unit.

Endpoint output: cell number of "CCn1cc(C(=O)O)c(=O)c2cc(F)c(N3CCNCC3)nc21" . Value?
91.3

Endpoint output: cell number of O=C(C1CCCCC1)N1CC(=O)N2CCc3ccccc3C2C1 (stereo not drawn) . Value?
103

Endpoint output: cell number of CCCCC=CCCCCCCCCC(=O)O [10(Z)-Pentadecenoic acid] . Value?
102

###

What H1.0 immunofluorescence intensity was measured for each of the following?
# System: HCC1569;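 also: TDF is a line of transformed human dermal fibroblasts of mesenchymal origin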
# Protocol Notes: H1.0 immunofluorescence intensity relative to DMSO (% of DMSO); higher = stronger H1.0 induction, active = 140 or more
# Run Parameters: concentration: 10 µM; 24 h
Answer using only a numeral; do not append any unit.

Provide value of H1.0 immunofluorescence intensity for this record tested with HCC1569: "COc1cc2c(N3CCN(C(=O)Nc4ccc(OC(C)C)cc4)CC3)ncnc2cc1OCCCN1CCCCC1"
99.5

Provide value of H1.0 immunofluorescence intensity for this record tested with HCC1569: CC(C)C(NC(=O)OCc1ccccc1)C(=O)NC(C=O)Cc1ccccc1 (stereo not drawn)
102

Provide value of H1.0 immunofluorescence intensity for this record tested with HCC1569: CCN(CC)CC(=O)Nc1c(C)cccc1C.Cl.O [Lidocaine.HCl.H2O]
103

Cited source for all entries: the supplement of paper PMC7156485
